test system: HCT-116 colon; assay: NCI tumour cell line growth inhibition, 48 h
ASSAY READOUT: TGI

INSERT INTO results (compound, assay_readout, measurement) VALUES
  ('C#CCNC(=O)[C@H](CC)[C@H]1CC[C@H](C)[C@H]([C@@H](C)[C@H](O)[C@H](C)C(=O)[C@H](CC)C2O[C@]3(C=CC(=O)[C@]4(CC[C@@](C)([C@H]5CC[C@](O)(CC)[C@H](C)O5)O4)O3)[C@H](C)C[C@@H]2C)O1 (some centres undefined)', 'TGI', '7.66 µM'),
  ('CC(=O)OCC(=O)O[C@@H]1[C@H]2[C@@H](OC(=O)c3ccccc3)[C@@H](C)C[C@]2(O)[C@H](OC(C)=O)[C@@]2(C)C(OC(C)=O)[C@]1(OC(C)=O)C[C@H]1C(=O)C(C)(C)C[C@@H]12 (some centres undefined)', 'TGI', '> 50 µM'),
  ('CCOC(=O)/C=C/CCO[Si](C)(C)C(C)(C)C', 'TGI', '> 100 µM'),
  ('CCOP1(=O)CC(C)=C(Cl)C(O)C1 (centres undefined)', 'TGI', '> 100 µM');

====

tested on: UACC-257 melanoma; experiment: NCI tumour cell line growth inhibition, 48 h; in the data active = GI50 below about 0.43 µM; inactive = the rest
Where a SMILES comes first, the peptide text is derived from it. The star is where a group is joined. Palmitoyl = CCCCCCCCCCCCCCCC(=O)*
Classes used: TRUE = active, FALSE = inactive

INSERT INTO measurements (compound, assay_system, classification) VALUES
  ('CC(C)(O)CNc1nc(Nc2ccnc(C(F)(F)F)c2)nc(-c2cccc(C(F)(F)F)n2)n1', 'UACC-257 melanoma', 'FALSE'),
  ('Cc1cc(N=Nc2ccccc2C)ccc1N', 'UACC-257 melanoma', 'FALSE'),
  ('O=C(Nc1cccc(-n2cc(-c3ccncc3)c(-c3cc(O)cc(Cl)c3)n2)c1)c1cc(C(F)(F)F)cc(C(F)(F)F)c1', 'UACC-257 melanoma', 'FALSE'),
  ('CCCCCCCCCCCCCCCC(=O)N1CCCC1C(=O)NCC(=O)NC(Cc1ccccc1)C(=O)NC(C)C(=O)NC(CO)C(=O)NC(Cc1ccc(O)cc1)C(=O)NC(CCCCN)C(=O)NC(CC(C)C)C(=O)NC(CCCN=C(N)N)C(=O)N1CCCC1C(=O)NCC(N)=O (centres undefined) (Palmitoyl-PGFASYKLRPG-NH2; configuration not given here)', 'UACC-257 melanoma', 'FALSE'),
  ('COC1C(O)C(CO)OC(OC2C(O)COC(OC3C(C)OC(OC4C(O[C@H]5CC[C@@]6(C)C(CC=C7[C@H]6CCC68C(=O)O[C@@](C)(CCCC(C)C)[C@H]6[C@@H](OC(C)=O)C[C@@]78C)C5(C)C)OCC(OS(=O)(=O)O)C4O)C(OC4OCC(O)C(O)C4O)C3O)C2O)C1O (some centres undefined)', 'UACC-257 melanoma', 'FALSE'),
  ('Cc1cc(N(CCCNc2ccnc3cc(Cl)ccc23)Cc2ccco2)nc(N2CCN(C)CC2)n1', 'UACC-257 melanoma', 'FALSE'),
  ('CCCCCO/N=C\c1c2c(O)c3c(O)c(C)c4c(c3c1O)C(=O)C(C)(O/C=C\C(OC)C(C)C(OC(C)=O)C(C)C(O)C(C)C(O)C(C)/C=C\C=C(\C)C(=O)N2)O4 (centres undefined)', 'UACC-257 melanoma', 'FALSE'),
  ('Cc1ccc(-c2nc([P+](c3ccccc3)(c3ccccc3)c3ccccc3)c(S(=O)(=O)c3ccc(C)cc3)o2)cc1', 'UACC-257 melanoma', 'FALSE'),
  ('c1ccc2cc(-c3n(Cc4ccc5ccccc5n4)c4ccccc4[n+]3Cc3ccc4ccccc4n3)ccc2c1', 'UACC-257 melanoma', 'TRUE'),
  ('CCN(CC)CCCCCCNc1cc(OC)cc2cccnc12', 'UACC-257 melanoma', 'FALSE'),
  ('Cc1cccc2c3c(sc12)C(c1ccc(Cl)cc1)C(C#N)=C(N)O3 (centres undefined)', 'UACC-257 melanoma', 'FALSE'),
  ('c1ccc2c(c1)Nc1ccncc1S2', 'UACC-257 melanoma', 'FALSE'),
  ('Cn1cc(C2=C(c3cccc(OC[C@@H](O)CO)c3)C(=O)NC2=O)c2ccccc21', 'UACC-257 melanoma', 'FALSE'),
  ('C#CCNC(=O)[C@H](CC)[C@H]1CC[C@H](C)[C@H]([C@@H](C)[C@H](O)[C@H](C)C(=O)[C@H](CC)C2O[C@]3(C=CC(=O)[C@]4(CC[C@@](C)([C@H]5CC[C@](O)(CC)[C@H](C)O5)O4)O3)[C@H](C)C[C@@H]2C)O1 (some centres undefined)', 'UACC-257 melanoma', 'FALSE');
